In this section, each of the compounds is paired with its reported CLint scaled at 9.8 μM.
# ASSAY NOTES: Liver microsomes stability assay
# Format: in vitro ADME, mouse
# CONDITION DESCRIPTION: both sexes, CD-1, pH 7.4; intrinsic clearance calculated from in vitro t1/2, mouse liver microsomes

COc1cc(Nc2ccc3cc(S(=O)(=O)N4CCCCC4C)ccc3n2)cc(OC)c1OC (stereo not shown) [Compound 1] :: 213 mL/min/kg

Query (compound): CC1CCCCN1S(=O)(=O)c1ccc2nc(Nc3ccc(C#N)cc3)ccc2c1 (stereo not shown) [Compound 12] ; field requested: CLint scaled at 9.8 μM
178 mL/min/kg

Query (compound): CC1CCCCN1S(=O)(=O)c1ccc2nc(Nc3cccc(C#N)c3)ccc2c1 (stereo not shown) [Compound 13] ; field requested: CLint scaled at 9.8 μM
680 mL/min/kg

Query (compound): CC1CCCCN1S(=O)(=O)c1ccc2nc(Nc3ccccc3)ccc2c1 (stereo not shown) [Compound 10] ; field requested: CLint scaled at 9.8 μM
438 mL/min/kg
